Overview of reported kon across a group of binders:
biological target: T1, Taq DNA polymerase (Thermus aquaticus, UniProt P19821 1-832); assay: AMC sensor, antibody immobilised
T1 construct: also called Taq enzyme; Taq DNA enzyme
T1 sequence (P19821 whole entry): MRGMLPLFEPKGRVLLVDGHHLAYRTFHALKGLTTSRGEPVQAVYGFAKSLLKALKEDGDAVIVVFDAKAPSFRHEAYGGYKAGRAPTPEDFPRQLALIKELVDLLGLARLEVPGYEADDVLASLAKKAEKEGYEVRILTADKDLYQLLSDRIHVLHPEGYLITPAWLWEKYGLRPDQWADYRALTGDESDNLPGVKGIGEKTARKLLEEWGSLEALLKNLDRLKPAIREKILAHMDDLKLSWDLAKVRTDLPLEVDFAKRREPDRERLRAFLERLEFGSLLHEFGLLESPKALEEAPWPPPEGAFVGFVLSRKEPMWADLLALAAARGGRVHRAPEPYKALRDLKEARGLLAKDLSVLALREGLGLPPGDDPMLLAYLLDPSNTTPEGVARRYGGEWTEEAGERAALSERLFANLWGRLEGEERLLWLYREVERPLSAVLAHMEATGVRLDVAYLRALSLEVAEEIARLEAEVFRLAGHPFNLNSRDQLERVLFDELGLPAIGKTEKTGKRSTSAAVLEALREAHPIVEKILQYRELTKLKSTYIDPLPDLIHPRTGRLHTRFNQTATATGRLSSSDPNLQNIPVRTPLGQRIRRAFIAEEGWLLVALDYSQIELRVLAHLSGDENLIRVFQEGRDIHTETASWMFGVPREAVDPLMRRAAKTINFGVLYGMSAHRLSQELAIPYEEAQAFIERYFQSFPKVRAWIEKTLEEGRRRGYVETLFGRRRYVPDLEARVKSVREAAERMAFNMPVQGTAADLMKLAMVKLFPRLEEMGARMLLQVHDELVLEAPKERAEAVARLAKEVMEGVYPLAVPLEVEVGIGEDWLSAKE
# number only, unit M⁻¹ s⁻¹ dropped from output

Binder	kon, M⁻¹ s⁻¹
Mutation 1-56 (antibody, V domains shown, Mutation 1 background; CDRs built) VH: QVQLQQPGAELVKPGASVRLSCQTSVDTFTTYYIYWVKQRPGEGLEWIGGINPTSGGPVFNEKFKSKATLTVDTSSSTAYMQLSSLTSVDSAVYYCTRSIIRRGYYFDYWGQGTALTVSS VL: DIQMTQTTSSLSASLGDRVTISCRASQDIQNYLNWYQQKPDGTIKLLIYYTSRLNSGLPSRFSGSGSGTDYSLTIANLEQEDIATYFCQQDDTIPLTFGAGTKVELKR	41500
Mutation 1-30 (antibody, V domains shown, Mutation 1 background; CDRs built; CDR-VL3 cell printed VL, read as V/L) VH: QVQLQQPGAELVKPGASVRLSCQTSVNTFSTYYIYWVKQRPGEGLEWIGGINPTSGGPVFNEKFKSKATLTVDTSSSTAYMQLSSLTSVDSAVYYCTRSVLRRGYYFDYWGQGTALTVSS VL: DIQMTQTTSSLSASLGDRVTISCRASQDIQNYVNWYQQKPDGTIKLLIYYTSRLQSGVPSRFSGSGSGTDYSLTIANLEQEDIATYFCQQDDTVPLTFGAGTKVELKR	49300

Below: the item to evaluate.
kon measured on Mutation 1-21 (antibody, V domains shown, Mutation 1 background; CDRs built) VH: QVQLQQPGAELVKPGASVRLSCQTSVNTFSTYYIYWVKQRPGEGLEWIGGVNPTSGGPVFNEKFKSKATLTVDTSSSTAYMQLSSLTSVDSAVYYCTRSVLRRGYYFDYWGQGTALTVSS VL: DIQMTQTTSSLSASLGDRVTISCRASQDINNYLNWYQQKPDGTIKLLIYYTSRLQSGVPSRFSGSGSGTDYSLTIANLEQEDIATYFCQQDDTVPVTFGAGTKVELKR = 89800

Entry source: patent US20210403601A1
